# method.summary: caspase 3/7 activation in HT29 HRAS cells, mechanism study for HRAS target identification, cell-based, caspase 3/7 luminescence, multiple timepoints, dry powder (AID 652070)
# condition.info: apoptosis; measured here: third timepoint caspase 3/7, at 0.068 µM, stronger effect = higher value unless noted
Results filed as inconclusive are left out.
observation.type: max activity

Given the compound O=C(NCCOCCOCCOc1ccc(N(C(=O)CCl)C(C(=O)NCCc2ccccc2)c2cccs2)cc1Cl)c1ccc(COC2C#CCCCCC2)cc1 (centres undefined) , what is its reported max activity? 24.4%
